Each item that follows carries a reported relative liaison affinity (RLA), Glucocorticoid receptor.
Target: Glucocorticoid receptor of rat thymus (Rattus norvegicus, UniProt P06536)
Construct: Their thymus was removed and homogenized at 0° C; from tissue; host or cells: 105,000 g supernatant (cytosol) of thymus from adrenalectomized male Sprague-Dawley rats
Sequence (P06536 1-795): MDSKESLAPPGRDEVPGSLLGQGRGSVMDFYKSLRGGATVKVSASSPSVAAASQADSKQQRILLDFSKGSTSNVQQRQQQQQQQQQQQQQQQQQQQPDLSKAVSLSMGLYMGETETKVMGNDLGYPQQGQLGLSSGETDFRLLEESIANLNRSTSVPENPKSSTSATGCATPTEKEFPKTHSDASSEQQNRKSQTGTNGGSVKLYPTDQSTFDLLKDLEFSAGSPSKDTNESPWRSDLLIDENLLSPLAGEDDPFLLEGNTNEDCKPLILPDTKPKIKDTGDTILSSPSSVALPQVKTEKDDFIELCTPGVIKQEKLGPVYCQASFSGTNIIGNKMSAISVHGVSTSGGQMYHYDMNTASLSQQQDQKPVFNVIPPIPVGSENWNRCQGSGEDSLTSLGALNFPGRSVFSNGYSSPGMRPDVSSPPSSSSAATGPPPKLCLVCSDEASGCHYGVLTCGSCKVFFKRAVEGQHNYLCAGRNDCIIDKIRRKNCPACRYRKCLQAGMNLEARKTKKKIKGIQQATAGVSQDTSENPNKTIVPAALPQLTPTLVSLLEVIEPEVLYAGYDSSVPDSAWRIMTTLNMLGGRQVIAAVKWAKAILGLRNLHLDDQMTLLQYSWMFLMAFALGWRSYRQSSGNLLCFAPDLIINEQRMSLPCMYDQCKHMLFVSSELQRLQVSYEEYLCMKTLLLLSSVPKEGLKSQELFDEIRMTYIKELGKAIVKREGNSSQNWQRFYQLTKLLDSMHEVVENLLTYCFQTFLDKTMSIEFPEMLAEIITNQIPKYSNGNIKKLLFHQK
Experiment: Glucocorticoid receptor of rat thymus: relative liaison affinity (RLA), displacement of tritiated dexamethasone
Assay type: binding, Male Sprague-Dawley EOPS rats
Settings: Incubation time 24 H at 0° C.; vs tritiated dexamethasone
Method: Glucocorticoid receptor of rat thymus: Their thymus was removed and homogenized at 0° C. in a buffer Tris 10 mM saccharose 0.25M, dithiotreitol 2 mM, HCl pH 7.4, using a Potter polytetrafluoroethylene-glass (1 g of tissue for 10 ml of TS). The homogenate was then ultracentrifuged at 105,000 g for 90 minutes at 0° C. […] The concentration of tritiated dexamethasone bonded (B) was then measured in each incubate by the technique of adsorption to dextran-carbon. […]

// query Respond only with relative liaison affinity (RLA), Glucocorticoid receptor recorded for C=C(C)C[C@]12CCC(=O)C=C1CC[C@@H]1C2=CC[C@@]2(C)[C@H]1CC[C@@]2(O)C#CC [Example 7]
// result 112

// query Given CC#C[C@]1(O)CC[C@H]2[C@@H]3CCC4=CC(=O)CC[C@]4(Cc4ccccc4F)C3=CC[C@@]21C [Example 12] , respond with its relative liaison affinity (RLA), Glucocorticoid receptor.
// result 45

// query Name the recorded relative liaison affinity (RLA), Glucocorticoid receptor of the compound listed here: CC#C[C@]1(O)CC[C@H]2[C@@H]3CCC4=CC(=O)CC[C@]4(Cc4ccccc4)C3=CC[C@@]21C [Example 1]
// result 57

// query Answer with reported relative liaison affinity (RLA), Glucocorticoid receptor of CC#C[C@]1(O)CC[C@H]2[C@@H]3CCC4=CC(=O)CC[C@]4(Sc4ccc(OC)cc4)C3=CC[C@@]21C [Example 10]
// result 152
